Field: remaining at 6 h, 1 mg mL^−1. Provide a value for each of the sequences that follow.
Assay: in vitro
Settings: human, human saliva (centrifuged, filtered supernatant)
No end group written: not given here.
I'd appreciate it if you wrote the number followed by its unit.

# Sequence Data, Observed Measurement
measured = [
    ("DSSDSSDSSDSSDSSDSSDSSDSSTFFRLFNRAKRHHGYKRKFH [8DSS-C8-P-113]", "89.4%"),
]

Could you now consider this next sequence?
query: Data request, read-out remaining at 6 h, 1 mg mL^−1, for TFFRLFNRAKRHHGYKRKFH [Peptide C8-P-113]
result: 11.9%

// data source = patent US20250296961A1
